These entries and their values trace back to patent US20160297851A1.

# Tested on: lepB(P84L) P. aeruginosa PAO1
# procedure.text: microbe, parasite or virus in culture
# Type: cell-based, Pseudomonas aeruginosa
readout.type: fold loss of activity relative to arylomycin C16

// `CCCCCCCCCCCCCCCC(=O)N(C)[C@H](CO)C(=O)N[C@H](C)C(=O)NCC(=O)N(C)[C@@H]1C(=O)N[C@@H](C(C)C)C(=O)N[C@H](C(=O)O)Cc2ccc(O)c(c2)-c2cc1ccc2O` : fold loss of activity relative to arylomycin C16 value = 4 fold

// `CCCCCCCCCCCCCCCC(=O)N(C)[C@H](CO)C(=O)N[C@H](C)C(=O)NCC(=O)N(C)[C@@H]1C(=O)NCC(=O)N[C@H](C(=O)O)Cc2ccc(O)c(c2)-c2cc1ccc2O` : fold loss of activity relative to arylomycin C16 value = > 16 fold

// `CCCCCCCCCCCCCCCC(=O)N(C)[C@H](CO)C(=O)N[C@H](C)C(=O)NCC(=O)N(C)[C@@H]1C(=O)N[C@@H](CC(C)C)C(=O)N[C@H](C(=O)O)Cc2ccc(O)c(c2)-c2cc1ccc2O` : fold loss of activity relative to arylomycin C16 value = > 16 fold

###

# System: lepB(P29S) S. aureus 8325
# procedure.text: microbe, parasite or virus in culture
# Format: cell-based, Staphylococcus aureus
# particulars: Table 3, P3 position derivatives; unit not given
readout.type: minimal inhibitory concentration (MIC)
Answer with a number only.

// `CCCCCCCCCCCCCCCC(=O)N(C)[C@H](CO)C(=O)N[C@H](C)C(=O)NCC(=O)N(C)[C@@H]1C(=O)N[C@@H](C(C)C)C(=O)N[C@H](C(=O)O)Cc2ccc(O)c(c2)-c2cc1ccc2O` : minimal inhibitory concentration (MIC) value = 32

// `CCCCCCCCCCCCCCCC(=O)N(C)[C@H](CO)C(=O)N[C@H](C)C(=O)NCC(=O)N(C)[C@@H]1C(=O)N[C@@H](CCC)C(=O)N[C@H](C(=O)O)Cc2ccc(O)c(c2)-c2cc1ccc2O` : minimal inhibitory concentration (MIC) value = 8

// `CCCCCCCCCCCCCCCC(=O)N(C)[C@H](CO)C(=O)N[C@H](C)C(=O)NCC(=O)N(C)[C@@H]1C(=O)N[C@@H](CCCCC)C(=O)N[C@H](C(=O)O)Cc2ccc(O)c(c2)-c2cc1ccc2O` : minimal inhibitory concentration (MIC) value = 16

// `CCCCCCCCCCCCCCCC(=O)N(C)[C@H](CO)C(=O)N[C@H](C)C(=O)NCC(=O)N(C)[C@@H]1C(=O)N[C@@H](C)C(=O)N[C@H](C(=O)O)Cc2ccc(O)c(c2)-c2cc1ccc2O` : minimal inhibitory concentration (MIC) value = 4

###

# Tested on: lepB(P84L) E. coli MG1655
# procedure.text: microbe, parasite or virus in culture
# Assay type: cell-based, Escherichia coli
readout.type: minimal inhibitory concentration (MIC)
Answer with a number only.

// `CCCCCCCCCCCCCCCC(=O)N(C)[C@H](CO)C(=O)N[C@H](C)C(=O)NCC(=O)N(C)[C@@H]1C(=O)N[C@@H](CC)C(=O)N[C@H](C(=O)O)Cc2ccc(O)c(c2)-c2cc1ccc2O` : minimal inhibitory concentration (MIC) value = 1

// `CCCCCCCCCCCCCCCC(=O)N(C)[C@H](CO)C(=O)N[C@H](C)C(=O)NCC(=O)N(C)[C@@H]1C(=O)N[C@@H](CC(C)C)C(=O)N[C@H](C(=O)O)Cc2ccc(O)c(c2)-c2cc1ccc2O` : minimal inhibitory concentration (MIC) value = 4

// `CCCCCCCCCCCCCCCC(=O)N(C)[C@H](CO)C(=O)N[C@H](C)C(=O)NCC(=O)N(C)[C@@H]1C(=O)NCC(=O)N[C@H](C(=O)O)Cc2ccc(O)c(c2)-c2cc1ccc2O` : minimal inhibitory concentration (MIC) value = 16
